Target: Cytochrome P450 2C19 (Homo sapiens) (UniProt P33261)
Sequence (P33261 whole entry, looked up): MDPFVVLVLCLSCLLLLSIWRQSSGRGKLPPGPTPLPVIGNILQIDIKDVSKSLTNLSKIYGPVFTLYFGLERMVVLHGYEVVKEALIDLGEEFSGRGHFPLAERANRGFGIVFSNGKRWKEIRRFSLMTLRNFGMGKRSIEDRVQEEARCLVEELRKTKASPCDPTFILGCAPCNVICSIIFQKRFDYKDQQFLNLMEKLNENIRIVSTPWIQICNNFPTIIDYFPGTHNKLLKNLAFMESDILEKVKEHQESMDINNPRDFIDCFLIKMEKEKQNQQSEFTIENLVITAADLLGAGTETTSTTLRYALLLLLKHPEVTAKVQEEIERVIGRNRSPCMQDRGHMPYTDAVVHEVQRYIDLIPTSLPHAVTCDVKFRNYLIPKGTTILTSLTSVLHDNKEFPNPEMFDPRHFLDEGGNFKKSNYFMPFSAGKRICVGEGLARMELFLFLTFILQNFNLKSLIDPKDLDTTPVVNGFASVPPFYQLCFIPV
Test: Cytochrome panel assay with activity outcomes
Conditions: recombinant CYP, pro-luciferin dealkylation, luminescence, p450-cyp2c19; series mostly up to 57.1 µM
Screen size: about 16,000 compounds; about 5,800 (36%) were called active. Not shown: some 23% with an inconclusive outcome. Calls follow the shape of the dose curve; as a rule, active = well fitted curve in the direction sought with a large enough effect; inconclusive = small, poorly fitted or top-dose-only effect, or effect the other way; inactive = no such curve, though single readings can be large or run the other way. The list shows a part of the results.
Labels: true (active), false (inactive)

Compound: O=c1[nH][nH]c(C(F)(F)F)c1C=Nc1ccccc1
Classification: false
--
Compound: CC(C)OC(=O)C(CC(=O)O)N1CCOCC1 (centres undefined)
Classification: false
--
Compound: Cn1nc(C(F)(F)F)c(C(=O)Nc2ccc(F)cc2F)c1Sc1ccc(C(F)(F)F)cc1
Classification: true
--
Compound: Cn1c(CC(=O)Nc2ccc(Cl)c(Cl)c2)nnc1SCC(=O)N1CCN(c2ccccc2)CC1
Classification: true
--
Compound: O=c1c2ccccc2nc2n1C(CSCc1cccc(C(F)(F)F)c1)CS2 (centres undefined)
Classification: true
--
Compound: CCOc1ccc(CCNC(=O)CCCN2C(=O)c3ccccc3C2=O)cc1OCC
Classification: true
--
Compound: CCOc1ccc(-c2nn(-c3ccccc3)cc2/C=C(\C#N)S(=O)(=O)c2ccccc2)cc1C
Classification: false
--
Compound: CC(C)c1ccccc1-n1c(SCC(=O)N2CCN(c3ccccc3)CC2)nnc1-c1cccnc1
Classification: true
--
Compound: CC(C)(C)NS(=O)(=O)c1ccc(NC(=O)C(Sc2ccccc2)c2ccccc2)cc1 (centres undefined)
Classification: true

###

Biological target: Cytochrome P450 2C19 (Homo sapiens)
Test: Cytochrome panel assay with activity outcomes
Details: recombinant CYP, pro-luciferin dealkylation, luminescence, p450-cyp2c19; series mostly up to 57.1 µM
Description: The P450 gene superfamily is involved in the metabolism and clearance of xenobiotics. This assay used various human CYP P450 isozymes to measure the dealkylation of various pro-luciferin substrates to luciferin. The luciferin is then measured by luminescence after the addition of a luciferase detection reagent. […] Inhibitors and some substrates limit the production of luciferin, and decrease measured luminescence. […] 8, Detection, 1 sec, ViewLux luminescent read […]
Out of some 16,000 compounds screened, about 5,800 (36%) were called active. Not shown: some 23% with an inconclusive outcome. Calls follow the shape of the dose curve; as a rule, active = well fitted curve in the direction sought with a large enough effect; inconclusive = small, poorly fitted or top-dose-only effect, or effect the other way; inactive = no such curve, though single readings can be large or run the other way. The list shows a part of the results.
Labels: yes for active, no for inactive

Molecule: ON(CCc1ccncc1)Cc1ccccc1
Subject Of Test: Cytochrome P450 2C19 (Homo sapiens)
Classification: yes
//
Molecule: COC(=O)N1CCC2(CCN(Cc3nccs3)CC2)CC1
Subject Of Test: Cytochrome P450 2C19 (Homo sapiens)
Classification: no
//
Molecule: Cc1[nH]n(-c2ccccc2)c(=O)c1CCOC(=O)c1cccc(C(F)(F)F)c1
Subject Of Test: Cytochrome P450 2C19 (Homo sapiens)
Classification: yes
//
Molecule: COc1ccc(OC)c2[nH]c(=O)c(CCNC(=O)c3ccc(S(=O)(=O)N4CCCC4)cc3)cc12
Subject Of Test: Cytochrome P450 2C19 (Homo sapiens)
Classification: yes
//
Molecule: Fc1ccccc1OCCCCSc1ncccn1
Subject Of Test: Cytochrome P450 2C19 (Homo sapiens)
Classification: yes
//
Molecule: COC(=O)[C@@H]1C[C@H]1[C@@H](NC(=O)Oc1ccc(F)cc1)c1ccccc1
Subject Of Test: Cytochrome P450 2C19 (Homo sapiens)
Classification: yes
//
Molecule: Cc1cccc(C)c1-n1c(SCC(=O)NCc2ccco2)nc2ccccc2c1=O
Subject Of Test: Cytochrome P450 2C19 (Homo sapiens)
Classification: yes
//
Molecule: COC(=O)[C@H]1C[C@@H]1[C@H](NC(C)=O)c1ccccc1
Subject Of Test: Cytochrome P450 2C19 (Homo sapiens)
Classification: no
//
Molecule: COC(=O)[C@H]1C[C@@H]1[C@H](NC(=O)OCc1ccccc1)c1ccccc1
Subject Of Test: Cytochrome P450 2C19 (Homo sapiens)
Classification: yes
//
Molecule: COCCNC(=O)COC(=O)/C=C/c1cnc2ccccc2n1
Subject Of Test: Cytochrome P450 2C19 (Homo sapiens)
Classification: yes
//
Molecule: CC(C)[C@H](CO)Nc1nc(Nc2ccc(C(=O)O)c(Cl)c2)c2ncn(C(C)C)c2n1
Subject Of Test: Cytochrome P450 2C19 (Homo sapiens)
Classification: no
//
Molecule: COc1ccc(OC)c2[nH]c(=O)c(CCNC(=O)c3ccc(S(=O)(=O)N(C)C)cc3)cc12
Subject Of Test: Cytochrome P450 2C19 (Homo sapiens)
Classification: no
//
Molecule: CCCCCCN1Cc2ccccc2C1
Subject Of Test: Cytochrome P450 2C19 (Homo sapiens)
Classification: yes
//
Molecule: CN1CCN(c2ncc3ncc(=O)n(-c4ccccc4)c3n2)CC1
Subject Of Test: Cytochrome P450 2C19 (Homo sapiens)
Classification: no
//
Molecule: CCCCOC(=S)NC(=O)c1sc2ccccc2c1Cl
Subject Of Test: Cytochrome P450 2C19 (Homo sapiens)
Classification: yes
//
Molecule: CCC/C=C(\CCC)C(NS(=O)(=O)c1ccc(C(F)(F)F)cc1)c1ccc(C(=O)OC)cc1 (stereo not given)
Subject Of Test: Cytochrome P450 2C19 (Homo sapiens)
Classification: yes
//
Molecule: CCC/C=C(\CCC)C(NS(C)(=O)=O)c1ccccc1 (stereo not given)
Subject Of Test: Cytochrome P450 2C19 (Homo sapiens)
Classification: yes
//
Molecule: CSCCC(NC=C1C(=O)OC(C)(C)OC1=O)C(=O)O (stereo not given)
Subject Of Test: Cytochrome P450 2C19 (Homo sapiens)
Classification: no
//
Molecule: C[C@@H](Cc1cccc(C(F)(F)F)c1)NCCOC(=O)c1ccccc1
Subject Of Test: Cytochrome P450 2C19 (Homo sapiens)
Classification: no
//
Molecule: COC(=O)[C@H]1C[C@@H]1[C@H](NC(=O)c1ccccc1)c1ccccc1
Subject Of Test: Cytochrome P450 2C19 (Homo sapiens)
Classification: yes
//
Molecule: CC(=O)N1CCC[C@@]2(CCN(Cc3nccs3)C2)C1
Subject Of Test: Cytochrome P450 2C19 (Homo sapiens)
Classification: no
//
Molecule: Cc1cnc(CNc2cc(-c3cccnc3)ncn2)cn1
Subject Of Test: Cytochrome P450 2C19 (Homo sapiens)
Classification: no
//
Molecule: CO[C@@H]1/C=C\O[C@@]2(C)Oc3c(C)c(O)c4c(c3C2=O)C(=N[C@H]2CC[C@H](O)O[C@@H]2C)C=C(NC(=O)/C(C)=C\C(=O)[C@@H]2C[C@@H]2[C@@H](O)[C@H](C)[C@@H](O)[C@H](C)[C@H](OC(C)=O)[C@@H]1C)C4=O
Subject Of Test: Cytochrome P450 2C19 (Homo sapiens)
Classification: yes
//
Molecule: O=C(CCc1ccccc1)NCc1cccnc1
Subject Of Test: Cytochrome P450 2C19 (Homo sapiens)
Classification: yes
//
Molecule: O=C1CC(c2ccccc2)Cc2nc(N3CCc4ccccc4C3)ncc21 (stereo not given)
Subject Of Test: Cytochrome P450 2C19 (Homo sapiens)
Classification: yes
//
Molecule: COc1cccc(OC)c1/C(O)=C(\C#N)c1nc2ccccc2[nH]1
Subject Of Test: Cytochrome P450 2C19 (Homo sapiens)
Classification: yes
//
Molecule: O=C(c1ccccc1)c1c[nH]c(C(=O)NCc2cccnc2)c1
Subject Of Test: Cytochrome P450 2C19 (Homo sapiens)
Classification: yes
//
Molecule: O=C(NC(=S)N(CCCCO)C1CCCCC1)c1sc2ccccc2c1Cl
Subject Of Test: Cytochrome P450 2C19 (Homo sapiens)
Classification: yes
//
Molecule: COc1ccc2[nH]cc(CCNc3ccnc(-c4cccc(NS(C)(=O)=O)c4)n3)c2c1
Subject Of Test: Cytochrome P450 2C19 (Homo sapiens)
Classification: yes
//
Molecule: COC(=O)[C@H]1C[C@@H]1[C@H](NC(=O)c1cccnc1)c1ccccc1
Subject Of Test: Cytochrome P450 2C19 (Homo sapiens)
Classification: no

The measurements presented in this section are drawn from PubChem BioAssay AID1851.
